This collection of values is drawn from the domain aggregation screens of Martell et al. (2025).

assay: soluble fraction after stress (log2 fold change); higher = more stays soluble; pooled small domains, quantitative proteomics; conditions: stress: 75 degC;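 further: 20 min heating vs room temperature control held 20 min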
Quick rule for you: soluble fraction (log2) at -0.6 or higher means T, lower means F.

Lookup: Kindly determine if soluble fraction (log2) recorded for HMNPSAFSEYSFELLQSALLKKKIDENLSNQTIARDAGVSEAFVQKVLTNNVKRPSVKNRVRMISYLGLD is above or exactly -0.6.
Found: F

Lookup: Lookup HMIDELLDPTHRIMVRHPRVDYVSPGFLIGPDKDVILWGFTGGIIARLFDFLGWTRPWDQSHVQDLPPYML
Found: T

Lookup: Next up: HMHEHWDGSGFPKHLRGANIPLGARVIAVADTYDSITSSRAYRAGSTHEAAEREMRRVSGTQLDPE
Found: T

Lookup: One more sequence: HMRDIGKNIRYYREKKGYSQEQLAQLLFVTRQTVSNYETSRSRPDVETLVKLAGLLDIDVTDLIYGPR
Found: F

Lookup: Now consider HMTKKFQIQTLDKLNVRKVADWNASAVTTVKKGQILDVVAEVSPKNGSTKMYKLESGLYITASEKYVKKQG and answer again.
Found: F

Lookup: Next sequence: HMVEIGENIKKLRKAKRMTQKEVANQLNVTPQTISKWERNISYPDLDMLVKLSQLFHISTDALL
Found: T

Lookup: Same read-out for HMDSRVRHAVLTTLLGKRIVDDLVEKGELPGTPLVLATAPGLDRDLEQLIAQRVVTALLTTV ?
Found: T

Lookup: For HMDAAEVEATARAMLRRSALNLLAQREQTAFELKQKLSRRFPEQAALLDEVIERLQEQGLQDDTR then?
Found: T

====

Would you mind telling me the reported soluble fraction (log2) of each entry?
assay: soluble fraction after stress (log2 fold change); higher = more stays soluble; pooled small domains, quantitative proteomics; settings: stress: 75 degC
// return a plain number; no unit text

Lookup: Which soluble fraction (log2) is listed for HMVRRSERLHALTESLRRSGNRGRTAEQLATEFEVSVRTIKRDLVALEASGLPLWSRPGPGGGYGLLS ?
Found: -0.953

Lookup: For HMKQVTVGGTINAGGARIYADSYGNGGGRQTFGSDPIYTVLQERNGYILTRWHKLSSGYTGWFKKSDVSA then?
Found: -0.917

Lookup: // next record HMNKTQLQIEDEVLKPLIAEIFSKSKGRFGARKIRSKLMGLGYTASERRILRLMKELGLSSAG
Found: -1.19

Lookup: Please give the result for HMYVPEVPVPDLLGRSEEEAKNLIEDLGLVFKVSKREYSKEYDEGHVMEQSVDEGAKVKENYPVEVVISR too.
Found: 0.181

====

assay: soluble fraction after stress (log2 fold change); higher = more stays soluble; pooled small domains, quantitative proteomics; conditions: stress: 75 degC
Param threshold (-0.5) applies to soluble fraction (log2); output rule met when value >= threshold, rule not met when value < threshold.

Lookup: Please check the record HMKALEGMRTVFTLADLATEPVTVEITVLEAFKYTTTLEIVQRPVLREWMTNPSMLIRVYHDASTAE and state if its soluble fraction (log2) is at or above -0.5.
Found: rule met

Lookup: Likewise for HMKPGYVIQVNGTVTKIQSGLVYVKTPAAQYTLMRKYAPADAAVGDRVSLWINEEGMVIDVHGK ?
Found: rule not met

Lookup: Now the sequence HMLSPPWYEYHRKVQAMFGRDPEVHIKDLDDLGDGKFSYMILVYNKEKAEAIKAILPQKVEMGNVTIETAI
Found: rule not met

Lookup: Could you do the same for HMSLLQTRQRHEALAALGFFKGDVAAEWSAASTEALRAAQASLGIRVDGKWGPQTEDAIGKALAERQG , please?
Found: rule met

Lookup: Try the sequence HMNGTGSVYKLSGKRRNPWRAVVTNGWAYNEEKGKLVQNRVTIGYYHTRDEAIQAIANYNSSP
Found: rule not met

Lookup: Quick one: HMTNVYSLIGKRGIVVEDIDWQKGTGQVKIDGELWSVKTNEQINISKGTEVEVENIEGVKVFVKPI
Found: rule met

Lookup: Also need HMSEPQYKVLFSNLDDRDGGAIVTALGAMNVPYKYNDTGTALLVPADRVYDARLQLASQGLPRG , thanks.
Found: rule met

Lookup: // repeat for HMEDDRMLVWFFRKSIQNGAQSEAEGRPIFEGKDYVHIQQPGERDYIEREAHQGDIGRWPRHWQAYQEGR and report
Found: rule met

Lookup: Follow-up entry: HMTDTIALRSVIAESGLKYKALAEIMGLSPYTLQMKIDNESEFKASEIDALANALGMDMQQRDSIFF
Found: rule not met

Lookup: Please answer likewise for HMRLLAESIARGLDPEGSGGLWAKEAGAEALKLMETLAAEAPHGGSFTAAAYRDLFESLVHQGEVREA
Found: rule met

Lookup: // repeat for HMTLDEFTDLMNLFKTGHIEQKPVILYGYNYWTSLKSWFEFNNMKFPEMYIDGIINTVDEFKILYNKIF and report
Found: rule not met

Lookup: Entry HMNEFGIPDKKLQDIETRVNSMSLEQLNAARSMLIDEQEALNSSTGSASSGRLKEIAAELSTIQKALIAIA please
Found: rule met

Lookup: Then what about the sequence HMSSESIKTDKNVGVGSTLEELEKAYGSDYTLSGKMYRYYQDDNSKYMYFFILNDVVQYYGYGIDV ?
Found: rule not met

Lookup: Please do the same for HMGVRPAALGFQKVRIEPQVGTFREASGDVITPRGLIHAEWKRDEENALHLHYTLPDGVAYA as well.
Found: rule met

Lookup: Can you check HMDNAILQELYDYYKEDPSLSQSELIISMLTRIQEAVGYVSKDVQEEVARLAGVNRGYVAAIIKNLPHL next?
Found: rule not met

Lookup: Quick one: HMSNMWVWSKLSGIQWMDAWEDRFHGNPNTVITRLKTNKTVRVEVYTETEQEALDIKKLFGGSIRKLV
Found: rule not met

Lookup: What would you report for HMVMNKQEFLKILRDTLQSQLSSRETENHVEYYRTYIEEQMREGKTEIEILDVLGDPRLIARTILET ?
Found: rule met

Lookup: Item: HMPLQKNRPKIKPQKVVFLFSVEWMWSPAHNRIDSYFINIKPSRYYLWNSFFDRHSFSDYWDFIGYTEN
Found: rule met

Lookup: Then HMRIATVTPIEEDQASDRVVAVYNDIKSTKQIDFIPNFWKVIAVNPDLLEQVWGQLKTLMHPEEVG ?
Found: rule not met

Lookup: Can you handle HMGQVFEGTFNRKANGKNSVTPAEGGEPVFIAERNSLHAMNGDLVKVSLLAKKKHQPREAQVIEILKRSD next?
Found: rule met

Lookup: Check HMQDTRSHARKMLAAIEALLEGRSGSDIQAYTIHNRSITKMTVPELVKWRSYYQQQVRSEDAAASLA too.
Found: rule not met

Lookup: Param item: HMDTLESYVKRLEKLEGIADSFKGVSKAFALQAGREIRIMVESEKITDEEAVWLSKDIARRIENELEYPG
Found: rule met

Lookup: Another: HMGLLLSQLDKDYQRYIDLADSTFRDNQLAVSRGWYNRALGVKAAEKYPKDQIAEIEKKIAERM
Found: rule not met

Lookup: Param item: HMGPKALLKIPGLQEVDAELLFKEGYKSISAVASADPEMLKAIPGVDEQKVTEWVTGAEQILSQQVNKGA
Found: rule met

Lookup: Then HMSNATELVYDDGRKLLISYETLVGGYHPDLGWIRTAKTYSISTDKHIRNYFNNVTNPRVVGEDILETLKI ?
Found: rule met

Lookup: Quick one: HMSGDYRPLYPNLPESEKSEAFNLLAGSALPARLDDRTGDIMVPADRYYEARMILANAGFAD
Found: rule met

Lookup: Param item: HMDEEVLVVQEGGERLDVFVAANAEGITRSFVQNLIKKGDVTVDGAPRKANYRLRSGQVVRFSLPEP
Found: rule met

Lookup: Do the same for HMEAGTEYVERAADYIRSHFQEDLTVSKLALYVGLNRSYLTTVFQNTLHVSPQQFLMRFRMERAAQLLD please
Found: rule met

Lookup: Consider next the sequence HMKKDLATYAYEHIKQMVIDRELMPGERIQQEVLARELGISRTPLVTALNRLASENLVELEANKGFSVRRF in the same way.
Found: rule met

Lookup: Then HMSDESRAEIVSSAKRLFQQYGYKKTTVSDIAKAMGKVKSAIYYYFPDKESLLRAVIDEEVG ?
Found: rule met

Lookup: Another sequence to check: HMSKQQFLDELAARLREEGAELLVAENLNFYRSYIEEEVAKGRSEEEVLAELGNPALIARSILDAAGF
Found: rule met

Lookup: Lookup HMKVLFLESIEGSASMGEIKDVANGYARNFLFPNGFAVPATPKNLKNVEELQAKELEIQTERDNWAA
Found: rule met

Lookup: Now consider HMKYSELLLEIILQSKEHPTAEQIFIEAKKRNPKIVQATVYNNLKNLLAQGRVIRISNPGQPDRYDNT .
Found: rule not met
